B1: ESRRA (parent)
chain: LGVAQRSLPLQDELAFAEDLVLDE

variants of: B1; assay: protein stability index of a GFP-peptide fusion (GPS, HEK-293T) (PSI 1-6); higher = more stable; settings: c terminus: a fixed tail appended;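 note: lentivirally expressed fusions sorted by FACS into six bins by GFP to DsRed ratio, PSI derived from sequencing read proportions per bin multiplied by bin number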
PROPERTY NAME: protein stability index
No unit in the answer, please; the number alone is enough.

Example entries and their recorded answers appear below.
Looking up L22R , I see its protein stability index listed as 2.89

The variant identified as L20S registered its protein stability index at 4.4

Summary for this variant, E18C : protein stability index is 4.09

Further cases:
G2T has a reported protein stability index of 2.91

Short answer for P9A : protein stability index was 4.37

Reported protein stability index of E13V : 2.64
